- assay target: C-Raf kinase (SEQ ID NO: 2) (Homo sapiens, UniProt P04049, Y340D/Y341D)
- Construct: C-Raf residues 306-end; Y340D, Y341D with N-; GST (N); purchased Sigma
- Sequence (P04049 307-648 Y340D/Y341D): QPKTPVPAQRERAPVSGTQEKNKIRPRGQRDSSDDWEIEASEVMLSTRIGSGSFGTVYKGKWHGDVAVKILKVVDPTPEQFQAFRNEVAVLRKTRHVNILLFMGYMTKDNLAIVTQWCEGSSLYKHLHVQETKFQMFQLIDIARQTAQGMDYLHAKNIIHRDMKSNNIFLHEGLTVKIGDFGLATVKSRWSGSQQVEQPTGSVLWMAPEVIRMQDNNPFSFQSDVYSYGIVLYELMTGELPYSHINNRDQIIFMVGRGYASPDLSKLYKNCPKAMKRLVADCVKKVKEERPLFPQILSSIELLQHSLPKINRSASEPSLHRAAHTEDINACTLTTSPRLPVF
- assay summary: Biochemical assay for C-Raf (coupled pyruvate kinase/lactate dehydrogenase)
- experimental conditions: 1 mM ATP; read-out: CRAF (inhibition of biochemical activity, IC50)
pIC50: −log10 of the molar value.
The entries below are paired with their reported pIC50.

Example entries begin here.
> print(dat)
                                   molecule  measured.property  experimental.result
1  Cc1ccc(NC(=O)c2cc(C(F)(F)F)cnn2)cc1-c1ccnc(N2C[C@@H]3C[C@H]2CO3)c1 [Example 87]              pIC50         6.30 to 7.00
2  C=C(C)c1cncc(C(=O)Nc2ccc(C)c(-c3cc(N[C@H](C)CO)nc(N4CCOCC4)c3)c2)n1 [Example 53]              pIC50               > 7.00
3  Cc1ccc(NC(=O)c2cc(C(C)C)cnn2)cc1-c1cc(N2CCOCC2)ncn1 [Example 72]              pIC50         6.30 to 7.00

Looking up Cc1ccc(NC(=O)c2cc(C(C)C)cnn2)cc1-c1cc(N[C@H](C)CO)nc(N2CCOCC2)c1 [Example 14] , I found its pIC50 recorded as > 7.00

Per the record, Cc1ccc(NC(=O)c2cc(C(F)(F)F)cnn2)cc1-c1nc(N[C@H](C)CO)cc(N2CCOCC2)n1 [Example 49] has pIC50 of 5.00 to 6.00

Form field pIC50, entry Cc1ccc(NC(=O)c2cc(C(F)(F)F)cnn2)cc1-c1cc(N[C@H](C)CO)nc(N2CCOCC2)c1 [Example 19] : > 7.00

Consider Cc1ccc(NC(=O)c2cc(C3CC3)cnn2)cc1-c1nccc(N2CCOCC2)n1 [Example 52] . Its measured pIC50 is 5.00 to 6.00

Query Cc1ccc(NC(=O)c2cc(C(C)(C)F)cnn2)cc1-c1cc(OCCO)nc(N2CCOCC2)c1 [Example 34] yields pIC50 of > 7.00

###

A collection of compounds and their measured pIC50
- System: MiaPaca-2 cells
- assay summary: MiaPaca-2 cell proliferation assay
- Format: cell-based
- experimental conditions: Homo sapiens, MIA PaCa-2; 67-72 h incubation, resazurin; read-out: MiaPaca-2 (inhibition of cell proliferation, IC50)
pIC50: −log10 of the molar value.

> print(dat)
                           molecular.string  experimental.result
1  Cc1ccc(NC(=O)c2cnc(Br)nc2)cc1-c1cc(N[C@H](C)CO)nc(N2CCOCC2)c1         5.00 to 6.00
2  Cc1ccc(NC(=O)c2cnc(C(F)(F)F)nc2)cc1-c1cc(N[C@H](C)CO)nc(N2CCOCC2)c1         6.00 to 6.30
3  Cc1cc(-c2cc(NC(=O)c3cc(C(F)(F)F)cnn3)ccc2C)cc(N2CCOCC2)n1         6.30 to 7.00
4  Cc1ccc(NC(=O)c2cc(C3CCC3)cnn2)cc1-c1cc(N[C@H](C)CO)nc(N2CCOCC2)c1               > 7.00
5  Cc1ccc(NC(=O)c2cncc(Cl)n2)cc1-c1cc(N[C@H](C)CO)nc(N2CCOCC2)c1         5.00 to 6.00
6  Cc1ccc(NC(=O)c2cc(C3CC3)cnn2)cc1-c1ccnc(N2C[C@H]3C[C@@H]2CO3)c1               > 7.00

For Cc1ccc(NC(=O)c2cc(C(F)(F)F)cnn2)cc1-c1cnnc(N2CCOCC2)c1 the compound record lists pIC50 as 6.00 to 6.30

Input CNc1cc(-c2cc(NC(=O)c3cc(C(F)(F)F)cnn3)ccc2C)cc(N2CCOCC2)n1 . Output pIC50: > 7.00

###

- Test system: HCT-116 cells
- assay summary: HCT-116 cell proliferation assay
- Type: cell-based
- experimental conditions: Homo sapiens; Table 4; mutant KRAS colorectal cancer cell line, anti-proliferative; read-out: HCT-116
measured property: IC50

> print(dat)
                                   compound   assay.target  measured.property  experimental.result
1  Cc1ccc(NC(=O)c2ccnc(C(F)(F)F)c2)cc1-c1cc(OCCO)nc(N2CCOCC2)c1 [Naporafenib, reference compound]  HCT-116 cells               IC50     1000 to 10000 nM
2  Cc1ccc(NC(=O)N2CC[C@@H](CC(F)(F)F)C2)cc1-c1cc(N[C@H](C)CO)nc(N2CCOCC2)c1 [Exarafenib, reference compound]  HCT-116 cells               IC50       500 to 1000 nM
3  CC(C)(C)c1nc(-c2cccc(NS(=O)(=O)c3c(F)cccc3F)c2F)c(-c2ccnc(N)n2)s1 [Dabrafenib, dabrafenib, reference compound]  HCT-116 cells               IC50     1000 to 10000 nM
4  C[C@@H](NC(=O)c1ncnc(N)c1Cl)c1ncc(C(=O)Nc2cc(C(F)(F)F)c(Cl)cn2)s1 [Tovorafenib, reference compound]  HCT-116 cells               IC50     1000 to 10000 nM
5  Cc1ccc2c(Nc3cccc(Cl)c3F)nccc2c1NC(=O)c1csc2c(N)ncnc12 [Belvarafenib, reference compound]  HCT-116 cells               IC50       500 to 1000 nM

We now examine a further compound.
Log: HCT-116 cells, compound CCCS(=O)(=O)Nc1ccc(F)c(C(=O)c2c[nH]c3ncc(-c4ccc(Cl)cc4)cc23)c1F [Vemurafenib, vemurafenib, reference compound] , IC50 = 1000 to 10000 nM

###

- Tested on: MiaPaca-2 cells
- assay summary: MiaPaca-2 cell proliferation assay
- Type: cell-based
- experimental conditions: Homo sapiens, MIA PaCa-2; 67-72 h incubation, resazurin; read-out: MiaPaca-2 (inhibition of cell proliferation, IC50)
pIC50: −log10 of the molar value.
Below, each of the compounds is paired with its reported pIC50 value.

Use these answered entries as a reference point.
> print(dat)
                           molecular.string  experimental.result
1  Cc1ccc(NC(=O)c2cc(C(F)(F)F)cnn2)cc1-c1cc(OCCO)nc(N2CCOCC2)c1               > 7.00
2  Cc1ccc(NC(=O)c2cncc(C(C)C)n2)cc1-c1cc(N[C@H](C)CO)nc(N2CCOCC2)c1         5.00 to 6.00

Now examine the next entry.
Lookup result for Cc1ccc(NC(=O)c2cc(Br)cnn2)cc1-c1cc(OCCO)nc(N2CCOCC2)c1 ; measured pIC50: 6.00 to 6.30

###

Items are presented alongside their recorded pIC50.
- assay target: C-Raf kinase (SEQ ID NO: 2) (Homo sapiens, UniProt P04049, Y340D/Y341D)
- Construct: C-Raf residues 306-end; Y340D, Y341D with N-; GST (N); purchased Sigma
- assay summary: Biochemical assay for C-Raf (coupled pyruvate kinase/lactate dehydrogenase)
- experimental conditions: 1 mM ATP; read-out: CRAF (inhibition of biochemical activity, IC50)
pIC50: −log10 of the molar value.

Answered examples (7):
> print(dat)
                           molecular.string  experimental.result
1  Cc1ccc(NC(=O)c2cc(C(F)(F)F)cnn2)cc1-c1cc(N2CCOCC2)nc(OCCO)n1         6.30 to 7.00
2  Cc1ccc(NC(=O)c2cc(C(C)C)cnn2)cc1-c1ccnc(N2CCOCC2)n1         6.30 to 7.00
3  Cc1ccc(NC(=O)c2cnc(C3CC3)nc2)cc1-c1cc(N[C@H](C)CO)nc(N2CCOCC2)c1               > 7.00
4  Cc1ccc(NC(=O)c2cc(C3CC3)cnn2)cc1-c1ccnc(N2CCOCC2)n1         6.00 to 6.30
5  Cc1ccc(NC(=O)c2cnc(Br)nc2)cc1-c1cc(N[C@H](C)CO)nc(N2CCOCC2)c1         5.00 to 6.00
6  Cc1ccc(NC(=O)c2cc(C#N)cnn2)cc1-c1cc(N[C@H](C)CO)nc(N2CCOCC2)c1         6.30 to 7.00
7  Cc1ccc(NC(=O)c2cc(C(F)(F)F)cnn2)cc1-c1cc(OCCO)nc(N2CCOCC2)n1         6.30 to 7.00

Next, consider the following compound.
Measured on C-Raf kinase (SEQ ID NO: 2) (Homo sapiens, UniProt P04049, Y340D/Y341D), CNc1cc(-c2cc(NC(=O)c3cc(C4CC4)cnn3)ccc2C)cc(N2CCOCC2)n1 has a documented pIC50 of > 7.00

Origin of the recorded values: patent US20250206729A1
